These data points were gathered from patent US20210403579A1.

Measured koff, listed per entry.
Biological target: T1, Human ST2 (human, UniProt Q01638 19-328, limits assumed)
T1 construct: also called human ST2 protein; Interleukin 1 receptor-like 1
T1 sequence (looked up): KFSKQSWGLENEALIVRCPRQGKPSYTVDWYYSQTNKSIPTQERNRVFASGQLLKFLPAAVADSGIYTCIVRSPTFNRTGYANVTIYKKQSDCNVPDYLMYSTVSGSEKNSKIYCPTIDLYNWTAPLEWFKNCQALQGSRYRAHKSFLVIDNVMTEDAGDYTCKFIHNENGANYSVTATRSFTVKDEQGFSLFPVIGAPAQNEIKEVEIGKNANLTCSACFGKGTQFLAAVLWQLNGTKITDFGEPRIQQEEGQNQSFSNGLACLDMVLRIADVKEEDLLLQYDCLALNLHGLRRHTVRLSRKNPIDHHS
Assay: SPR (Carterra), antibody immobilized, ST2 analyte
Field format: number, assumed s⁻¹, no unit text.

{"binder": "Human ST2 IgG1 Antibody 37 (antibody, V domains shown, IgG1; also called ST2 Antibody 37) VH: EVQLLESGGGLVQPGGSLRLSCAASGFTFTDAWMNWVRQAPGKGLEWVSTISVSVGVTYYADSVKGRFTISRDNSKNTLYLQMNSLRAEDTAVYYCATIGSMATIRKGATDAFDIWGQGTLVTVSS VL: DIQMTQSPSSLSASVGDRVTITCRASQRINSYLNWYQQKPGKAPKLLIYAASTLQSGVPSRFSGSGSGTDFTLTISSLQPEDFATYYCQQSYSTPPTFGGGTKVEIKR", "koff, s⁻¹": 0.085}

Please give the measured koff for this binder: Human ST2 IgG1 Antibody 28 (antibody, V domains shown, IgG1; also called ST2 Antibody 28) VH: QVQLVQSGAEVKKPGSSVKVSCKASGGTFGNYGINWVRQAPGQGLEWMGGIIPVFGTTNYAQKFQGRVTITADESTSTAYMELSSLRSEDTAVYYCARGLRYYYGMDVWGQGTTVTVSS VL: DIVMTQSPLSLPVTPGEPASISCRSSQSLLHSNGYNYLDWYLQKPGQSPQLLIYGASTLQSGVPDRFSGSGSGTDFTLKISRVEAEDVGVYYCMQALQNPLTFGGGTKVEIKR
0.066
